Source: PubChem BioAssay (NCI)

# Tested on: A498 renal
# experiment: NCI-60 one-dose screen, 48 h
# measurement.context: 10 µM unless noted
About 83,000 compounds went through this panel and 20% of them were active in at least one assay; those are over-represented in the sample as a whole. Active and inactive are the calls of the source. The calls were made as follows: active = growth percent below 10; inactive = the rest.
Return exactly one item of active, inactive

Please share the test call associated with `NC[C@@H]1CCN(c2cc3c(cc2F)c(=O)n(N)c(=O)n3Cc2ccc(-c3ccccc3)cc2)C1` .
inactive

Further, for `CN(C)CSc1nc2ccccc2s1` ?
inactive

Further, for `Cc1cnc(-c2ccc(-c3ccc(NC(=O)Nc4c(F)cc(F)cc4F)cc3F)c3c2C(=O)NC3)[nH]1` ?
inactive

Further, for `O=C1c2ccccc2C(=O)c2c1oc1c2c(=O)[nH]c2ccc(Cl)cc21` ?
inactive

Further, for COc1cc(C2=NN(c3ccccc3)C(c3cccc(Nc4ccnc5cc(C(F)(F)F)ccc45)c3)C2)cc(OC)c1OC (centres undefined) ?
inactive

Further, for `COc1ccc2c(c1)OC13Oc4cc(OC)ccc4C=C1CCCCC3=C2` ?
inactive

Further, for `CN(C)[C@@H]1C(=O)C(C(N)=O)=C(O)[C@@]2(O)C(=O)C3=C(O)c4c(O)cc(CN5CCc6ccccc6C5)c(Cl)c4C[C@H]3C[C@@H]12` ?
active

Further, for COc1c(O)cc2oc3cc(O[C@@H]4OC(C)[C@@H](O)[C@H](O)C4O)c(CC=C(C)C)c(O)c3c(=O)c2c1CC=C(C)C (some centres undefined) ?
inactive

Further, for `C=C(C)[C@@H]1CCC=C2CC[C@]3(C)[C@H](CC[C@@H]4[C@@]5(C)CCCNC(C)(C)[C@@H]5CC[C@]43C)[C@H]21` ?
inactive

Further, for `O=C(CCCCCCCCC(=O)Nc1cccc(C2=NCCN2)c1)Nc1cccc(C2=NCCN2)c1` ?
inactive

Further, for `CCCCn1c2cc(OCc3cn(-c4ccc(Cl)cc4)nn3)ccc2c2ccnc(C)c21` ?
inactive

Further, for `O=c1nc(-c2ccccc2)c2cc(-c3ccc(N4CCCC4)nc3)ccc2[nH]1` ?
inactive

Further, for `N#Cc1ccc(Oc2ccc3ccc(=O)oc3c2)cc1` ?
inactive

Further, for `O=[N+]([O-])c1ccc(N=Nc2c(O)c(N=Nc3cc([N+](=O)[O-])cc([N+](=O)[O-])c3O)cc(N=Nc3cc(S(=O)(=O)O)cc4cc(S(=O)(=O)O)cc(O)c34)c2O)cc1` ?
inactive

Further, for `C=C1C(=O)O[C@H]2[C@H]1CCC(/C=N/c1ncc(Br)cc1N)=C\CC[C@@]1(C)O[C@@H]21` ?
inactive

Further, for `COc1cc(C2=N/C(=C\c3cc4ccccc4nc3Oc3ccccc3)C(=O)N2C(=N)N)cc(OC)c1OC` ?
inactive

Further, for `COc1cc2cc(c1Cl)N(C)C(=O)C[C@H](OC(=O)[C@H](C)N(C)C(=O)CCS)C[C@]1(C)O[C@H]1[C@H](C)[C@@H]1C[C@@](O)(NC(=O)O1)[C@H](OC)/C=C/C=C(\C)C2` ?
active

Further, for `C=C1C(=O)O[C@H]2[C@H]1CC/C(C=Nc1c(N)cc(C(F)(F)F)cc1Br)=C\CC[C@@]1(C)O[C@@H]21` ?
inactive

Further, for O=C1NN(c2ccccc2)C(c2ccc(Cl)cc2)N2CCC[C@H]12 (some centres undefined) ?
inactive

Further, for `C=C1C(=O)O[C@H]2[C@H]1CC/C(COC(=O)n1ccnc1)=C\CC[C@@]1(C)O[C@@H]21` ?
inactive

Further, for `N#Cc1c(-c2ccc(Cl)cc2)cc(-c2cc3ccccc3o2)nc1SCC(=O)c1ccc(Cl)cc1` ?
inactive

Further, for `COC(=O)/C=C1\SC(=Nc2ccc(C(F)(F)F)cc2)N(CCc2c[nH]c3ccccc23)C1=O` ?
active

Further, for `Nc1n[nH]c2cccc(C#Cc3cccc(NC(=O)c4cc(N5CCOCC5)cc(C(F)(F)F)c4)c3)c12` ?
active

Further, for `O=C(/C(=C/c1ccc([N+](=O)[O-])cc1)SCc1ccc(Cl)cc1)c1ccc(F)cc1` ?
inactive

Further, for `CCCCc1n(Cc2ccc3ccccc3n2)cc[n+]1Cc1ccc2ccccc2c1` ?
active

Further, for `COc1ccc(Nc2nc(SCC(C)C)nc(-c3ccc(F)cc3)c2C#N)cc1` ?
inactive

Further, for `COc1ccc2nc3c(n2c1)C(=O)C(=O)c1ccccc1-3` ?
inactive

Further, for `COC(=O)[C@]1(C)CCC[C@]2(C)[C@H]3C[C@H]4C(C(C)C)=C[C@]3(CC[C@H]21)[C@@H]1C(=O)N(CCC#N)C(=O)[C@@H]14` ?
inactive

Further, for COc1ccc(C2CC(c3ccc(OC)cc3O)=NN2c2ccc(S(N)(=O)=O)cc2)cc1 (centres undefined) ?
inactive

Further, for O=C1CC23OC(C(O)c4ccccc4N12)C1C(c2ccccc2)=NOC13 (centres undefined) ?
inactive

Further, for `C=C1C(=O)O[C@H]2[C@H]1CC/C(COC(=O)CCC(=O)OC/C1=C/CC[C@@]3(C)O[C@H]3[C@H]3OC(=O)C(=C)[C@@H]3CC1)=C\CC[C@@]1(C)O[C@@H]21` ?
inactive

Further, for `COc1cc(-c2csc(NC(=O)Nc3ccc(Cl)cc3)n2)cc(OC)c1OC` ?
inactive

Further, for CC(=O)Nc1nc2c(c(N)c1C#N)C(c1cccc(Cl)c1)C1=C(CCCC1=O)N2c1sc2c(c1C#N)CCCC2 (centres undefined) ?
inactive

Further, for `CC(=O)Oc1ccc(O)cc1` ?
inactive
